Measured values drawn from patent US8158638B2 for this set.

# Test system: human lung cancer cell line NCI-H460
# test protocol: Cell growth inhibition assay (MTT), NCI-H460
# Assay type: cell-based
# experimental conditions: Homo sapiens; NCI-H460, MTT assay, 72 hours; read-out: GI50 value (50% growth inhibitory concentration)
Assign labels as follows, please: fulfilled for GI50 below 90 nM; not fulfilled for GI50 equal to or exceeding 90 nM.

Use these answered entries as a reference point.
COc1c(C)cnc(Cn2nc3c4c(nc(N)nc42)SC(C#N)C3)c1C (stereo not drawn) [Example 4]; fulfilled
COc1c(C)cnc(Cn2nc3c4c(nc(N)nc42)SCC(N(C)C(C)=O)C3)c1C (stereo not drawn) [Example 99]; not fulfilled
COc1ccnc(Cn2nc3c4c(nc(N)nc42)SCC3)c1C [Example 164]; not fulfilled
CNC(=O)OC1CSc2nc(N)nc3c2c(nn3Cc2ncc(C)c(OC)c2C)C1 (stereo not drawn) [Example 37]; not fulfilled

Attention now turns to another entry.
GI50 strictly < 90 nM for this molecule? COc1c(C)cnc(Cn2nc3c4c(nc(N)nc42)SCC(CC(=O)N2CCC2)=C3)c1C [Example 123] fulfilled
